tested on: NCI-H1341 complex spheroids, percent test/control; assay: Anticancer human tumor NCI-H1341 cell line growth inhibition [AhR]; details: second compound 3.16 µM; first compound 3.16 µM; active means viability on the fitted dose curve at most 10% of control; inactive means the rest;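 further: spheroids exposed to agents for seven days before readout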
Your response should consist of one outcome taken from active, inactive

• COc1cc(C2c3cc4c(cc3C(OC3OC5COC(C)OC5C(O)C3O)C3COC(=O)C23)OCO4)cc(OC)c1O (configuration not stated) + CC(CO)NC(=O)c1cc(-c2ccc(Cl)cc2)nn(-c2cnn(C)c2)c1=O = inactive
• Nc1ccccc1NC(=O)c1ccc(CNC(=O)OCc2cccnc2)cc1 + Cc1ccccc1N=Nc1ccc(NC(=O)c2ccnn2C)c(C)c1 = inactive
• O=C(c1cc(Cc2n[nH]c(=O)c3ccccc23)ccc1F)N1CCN(C(=O)C2CC2)CC1 + Cc1cncc(-c2nc(NCCc3c[nH]c4ccccc34)c3ncn(C(C)C)c3n2)c1 = inactive

Query :: // outcome(item) with item = COc1cc(C2c3cc4c(cc3C(OC3OC5COC(C)OC5C(O)C3O)C3COC(=O)C23)OCO4)cc(OC)c1O (configuration not stated) + Cc1cncc(-c2nc(NCCc3c[nH]c4ccccc34)c3ncn(C(C)C)c3n2)c1
Result :: inactive

Query :: Next entry: Nc1ccn(C2OC(CO)C(O)C2(F)F)c(=O)n1 (configuration not stated) + CC(CO)NC(=O)c1cc(-c2ccc(Cl)cc2)nn(-c2cnn(C)c2)c1=O
Result :: inactive

Query :: Next entry: Nc1ccn(C2OC(CO)C(O)C2(F)F)c(=O)n1 (configuration not stated) + Cc1ccccc1N=Nc1ccc(NC(=O)c2ccnn2C)c(C)c1
Result :: inactive

Query :: Next entry: COc1cc(C2c3cc4c(cc3C(OC3OC5COC(C)OC5C(O)C3O)C3COC(=O)C23)OCO4)cc(OC)c1O (configuration not stated) + Cc1ccccc1N=Nc1ccc(NC(=O)c2ccnn2C)c(C)c1
Result :: inactive

Query :: Next entry: CC1(C)CCC(CN2CCN(c3ccc(C(=O)NS(=O)(=O)c4ccc(NCC5CCOCC5)c([N+](=O)[O-])c4)c(Oc4cnc5[nH]ccc5c4)c3)CC2)=C(c2ccc(Cl)cc2)C1 + Cc1cncc(-c2nc(NCCc3c[nH]c4ccccc34)c3ncn(C(C)C)c3n2)c1
Result :: inactive

Query :: Next entry: COc1ccc([C@@H](O)c2cc(-c3ncnc4cc(N5CCOCC5)ccc34)c(F)cc2Cl)nn1 + CC(CO)NC(=O)c1cc(-c2ccc(Cl)cc2)nn(-c2cnn(C)c2)c1=O
Result :: inactive

----------
Listing of entries alongside the reported viability, T/C.
test system: NCI-H1341 complex spheroids, percent test/control; assay: Anticancer human tumor NCI-H1341 cell line growth inhibition [AhR]; conditions: second compound 0.316 µM; first compound 0.0316 µM; stronger effect = lower value;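 further: spheroids exposed to agents for seven days before readout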
Entry rule: numbers only, all in %.

• COc1cc(Nc2ncc3c(n2)-c2ccc(Cl)cc2C(c2c(F)cccc2OC)=NC3)ccc1C(=O)O + CC(CO)NC(=O)c1cc(-c2ccc(Cl)cc2)nn(-c2cnn(C)c2)c1=O = 50.5
• CC1COCCN1c1cc(-c2ccnn2C)c2ccnc(-c3ccn[nH]3)c2n1 (stereo unspecified) + CC(CO)NC(=O)c1cc(-c2ccc(Cl)cc2)nn(-c2cnn(C)c2)c1=O = 54.5

Query :: What value of viability, T/C has been reported for the following molecule? O=C(C=Cc1cccc(S(=O)(=O)Nc2ccccc2)c1)NO + Cc1cncc(-c2nc(NCCc3c[nH]c4ccccc34)c3ncn(C(C)C)c3n2)c1
Result :: 76.2

Query :: Next entry: NS(=O)(=O)OCC1CC(n2ccc3c(NC4CCc5ccccc54)ncnc32)CC1O (stereo unspecified) + Cc1cncc(-c2nc(NCCc3c[nH]c4ccccc34)c3ncn(C(C)C)c3n2)c1
Result :: 54.4

Query :: Next entry: Nc1ncn(C2CC(O)C(CO)O2)c(=O)n1 (stereo unspecified) + Cc1ccccc1N=Nc1ccc(NC(=O)c2ccnn2C)c(C)c1
Result :: 100

Query :: Next entry: Cn1ncnc1C1c2n[nH]c(=O)c3cc(F)cc(c23)NC1c1ccc(F)cc1 (stereo unspecified) + Cc1ccccc1N=Nc1ccc(NC(=O)c2ccnn2C)c(C)c1
Result :: 90.9

----------
system: NCI-H1341 complex spheroids, percent test/control; assay: Anticancer human tumor NCI-H1341 cell line growth inhibition [AhR]; details: second compound 0.1 µM; first compound 0.01 µM; stronger effect = lower value;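 further: spheroids exposed to agents for seven days before readout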
metric name: viability, T/C (%)
Entry rule: numbers only, all in %.

- Cn1ncnc1C1c2n[nH]c(=O)c3cc(F)cc(c23)NC1c1ccc(F)cc1 (stereo unspecified) + Cc1cncc(-c2nc(NCCc3c[nH]c4ccccc34)c3ncn(C(C)C)c3n2)c1: 89.3
- Cn1ncnc1C1c2n[nH]c(=O)c3cc(F)cc(c23)NC1c1ccc(F)cc1 (stereo unspecified) + CC(CO)NC(=O)c1cc(-c2ccc(Cl)cc2)nn(-c2cnn(C)c2)c1=O: 73.5

Now let's try a different one.
Query :: What value of viability, T/C has been reported for the following molecule? CC1COCCN1c1cc(-c2ccnn2C)c2ccnc(-c3ccn[nH]3)c2n1 (stereo unspecified) + CC(CO)NC(=O)c1cc(-c2ccc(Cl)cc2)nn(-c2cnn(C)c2)c1=O
Result :: 77.6

----------
system: NCI-H1341 complex spheroids, percent test/control; test: Anticancer human tumor NCI-H1341 cell line growth inhibition [AhR]; settings: second compound 0.316 µM; first compound 0.0316 µM; stronger effect = lower value;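 further: spheroids exposed to agents for seven days before readout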
Rule for this label: T means viability, T/C is less than 70%; F means viability, T/C is at least 70%.

Query :: Regarding COc1cc(Nc2ncc3c(n2)-c2ccc(Cl)cc2C(c2c(F)cccc2OC)=NC3)ccc1C(=O)O + Cc1ccccc1N=Nc1ccc(NC(=O)c2ccnn2C)c(C)c1 , kindly confirm whether its viability, T/C is beneath 70%.
Result :: T

----------
Listing of entries alongside the reported viability, T/C.
tested on: NCI-H1341 complex spheroids, percent test/control; test: Anticancer human tumor NCI-H1341 cell line growth inhibition [AhR]; settings: second compound 0.316 µM; first compound 3.16 µM; stronger effect = lower value;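 further: spheroids exposed to agents for seven days before readout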
Entry rule: numbers only, all in %.

Examples with answers:
• COc1cccc2c1C(=O)c1c(O)c3c(c(O)c1C2=O)CC(O)(C(=O)CO)CC3OC1CC(N)C(O)C(C)O1 (stereo unspecified) + Cc1ccccc1N=Nc1ccc(NC(=O)c2ccnn2C)c(C)c1 = 2.31
• O=C(C=Cc1cccc(S(=O)(=O)Nc2ccccc2)c1)NO + Cc1cncc(-c2nc(NCCc3c[nH]c4ccccc34)c3ncn(C(C)C)c3n2)c1 = 5.78
• O=C(c1cc(Cc2n[nH]c(=O)c3ccccc23)ccc1F)N1CCN(C(=O)C2CC2)CC1 + Cc1cncc(-c2nc(NCCc3c[nH]c4ccccc34)c3ncn(C(C)C)c3n2)c1 = 74.1
• Nc1ccccc1NC(=O)c1ccc(CNC(=O)OCc2cccnc2)cc1 + Cc1cncc(-c2nc(NCCc3c[nH]c4ccccc34)c3ncn(C(C)C)c3n2)c1 = 5.82
• COc1cc(C2c3cc4c(cc3C(OC3OC5COC(C)OC5C(O)C3O)C3COC(=O)C23)OCO4)cc(OC)c1O (stereo unspecified) + CC(CO)NC(=O)c1cc(-c2ccc(Cl)cc2)nn(-c2cnn(C)c2)c1=O = 39.4

Now let's try a different one.
Query :: What value of viability, T/C has been reported for the following compound? Nc1ccccc1NC(=O)c1ccc(CNC(=O)OCc2cccnc2)cc1 + CC(CO)NC(=O)c1cc(-c2ccc(Cl)cc2)nn(-c2cnn(C)c2)c1=O
Result :: 6.91

----------
Listing of entries alongside the reported viability, T/C.
test system: NCI-H1341 complex spheroids, percent test/control; test: Anticancer human tumor NCI-H1341 cell line growth inhibition [AhR]; conditions: second compound 0.1 µM; first compound 0.03 µM; stronger effect = lower value;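 further: spheroids exposed to agents for seven days before readout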

Examples with answers:
• CCN(c1cc(-c2ccc(CN3CCOCC3)cc2)cc(C(=O)NCc2c(C)cc(C)[nH]c2=O)c1C)C1CCOCC1 + Cc1cncc(-c2nc(NCCc3c[nH]c4ccccc34)c3ncn(C(C)C)c3n2)c1 = 91.7%
• CCc1c2c(nc3ccc(O)cc13)-c1cc3c(c(=O)n1C2)COC(=O)[C@]3(O)CC + Cc1ccccc1N=Nc1ccc(NC(=O)c2ccnn2C)c(C)c1 = 44.3%
• CCc1c2c(nc3ccc(O)cc13)-c1cc3c(c(=O)n1C2)COC(=O)[C@]3(O)CC + CC(CO)NC(=O)c1cc(-c2ccc(Cl)cc2)nn(-c2cnn(C)c2)c1=O = 38.8%
• O=C(C=Cn1cnc(-c2cc(C(F)(F)F)cc(C(F)(F)F)c2)n1)NNc1cnccn1 + CC(CO)NC(=O)c1cc(-c2ccc(Cl)cc2)nn(-c2cnn(C)c2)c1=O = 66%
• CCN(c1cc(-c2ccc(CN3CCOCC3)cc2)cc(C(=O)NCc2c(C)cc(C)[nH]c2=O)c1C)C1CCOCC1 + Cc1ccccc1N=Nc1ccc(NC(=O)c2ccnn2C)c(C)c1 = 85.1%

Query :: What value of viability, T/C has been reported for the following compound? CC(C)CC(NC(=O)C(Cc1ccccc1)NC(=O)c1cnccn1)B(O)O (stereo unspecified) + CC(CO)NC(=O)c1cc(-c2ccc(Cl)cc2)nn(-c2cnn(C)c2)c1=O
Result :: 0.08%
